- study_system: ErbB4 on neonatal rat cardiomyocytes (rat) (UniProt Q62956)
- Sequence (Q62956 26-1308): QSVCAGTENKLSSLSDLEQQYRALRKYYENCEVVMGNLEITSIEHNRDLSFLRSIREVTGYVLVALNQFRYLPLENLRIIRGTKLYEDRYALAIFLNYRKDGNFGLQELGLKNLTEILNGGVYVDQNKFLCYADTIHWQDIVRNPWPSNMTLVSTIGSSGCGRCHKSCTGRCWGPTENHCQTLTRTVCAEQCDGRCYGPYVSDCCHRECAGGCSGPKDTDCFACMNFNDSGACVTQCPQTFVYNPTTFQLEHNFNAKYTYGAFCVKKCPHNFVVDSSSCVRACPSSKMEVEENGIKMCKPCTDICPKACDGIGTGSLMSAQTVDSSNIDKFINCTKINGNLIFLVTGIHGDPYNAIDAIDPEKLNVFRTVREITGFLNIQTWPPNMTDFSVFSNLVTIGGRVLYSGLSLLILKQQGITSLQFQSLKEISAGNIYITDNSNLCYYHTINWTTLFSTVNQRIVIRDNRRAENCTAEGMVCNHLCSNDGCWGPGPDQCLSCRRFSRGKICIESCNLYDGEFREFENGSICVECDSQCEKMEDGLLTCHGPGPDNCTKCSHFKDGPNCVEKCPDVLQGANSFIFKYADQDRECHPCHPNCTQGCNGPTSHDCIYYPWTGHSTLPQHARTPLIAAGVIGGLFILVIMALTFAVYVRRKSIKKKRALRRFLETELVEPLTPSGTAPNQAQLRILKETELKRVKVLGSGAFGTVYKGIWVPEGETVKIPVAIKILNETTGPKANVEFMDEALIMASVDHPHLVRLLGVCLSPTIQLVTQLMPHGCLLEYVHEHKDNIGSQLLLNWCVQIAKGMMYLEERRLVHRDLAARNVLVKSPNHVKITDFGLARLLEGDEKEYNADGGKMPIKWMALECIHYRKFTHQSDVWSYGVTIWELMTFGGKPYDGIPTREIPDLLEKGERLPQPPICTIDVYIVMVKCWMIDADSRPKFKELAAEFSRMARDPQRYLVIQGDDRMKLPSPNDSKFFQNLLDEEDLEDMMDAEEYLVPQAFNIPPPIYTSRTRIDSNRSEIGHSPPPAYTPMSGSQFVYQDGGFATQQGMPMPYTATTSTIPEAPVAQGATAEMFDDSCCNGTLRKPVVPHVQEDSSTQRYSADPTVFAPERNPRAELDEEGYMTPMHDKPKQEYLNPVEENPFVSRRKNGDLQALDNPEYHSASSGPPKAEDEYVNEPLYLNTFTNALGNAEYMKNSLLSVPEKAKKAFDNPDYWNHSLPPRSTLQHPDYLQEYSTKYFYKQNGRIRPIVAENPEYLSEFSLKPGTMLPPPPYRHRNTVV
- test_description: cell-based or functional assay
measure: Selectivity SC/CM

>  <binder>
huNRG1(S177-Q237)(3F2)::GG::huFcSEFL2 (Pb) (Fc fusion) SHLVKCGESHKSFCVNGGECFMIEGPSNPSRYLCKCPNEFTGDRCQDDFMASFYKAEELYQGGDKTHTCPPCPAPELLGGPSVFLFPPKPKDTLMISRTPEVTCVVVDVSHEDPEVKFNWYVDGVEVHNAKTKPCEEQYGSTYRCVSVLTVLHQDWLNGKEYKCKVSNKALPAPIEKTISKAKGQPREPQVYTLPPSREEMTKNQVSLTCLVKGFYPSDIAVEWESNGQPENNYKTTPPVLDSDGSFFLYSKLTVDKSRWQQGNVFSCSVMHEALHNHYTQKSLSLSPGK

>  <measure>
Selectivity SC/CM

>  <reading>
> 10000

$$$$

Now take the following binder into account.
Form field: reported Selectivity SC/CM of huNRG1(S177-F229)(NRGE1D)::1KmodT482V, M493L)::huFcSEFL2 (Pb) (Fc fusion) SHLVKCGESHKSFCVNGGECYMVEGSSIPSRYLCKCPNEFTGDRCQEDFMASFGSGSATGGSGSVASSGSGSATHLDKTHTCPPCPAPELLGGPSVFLFPPKPKDTLMISRTPEVTCVVVDVSHEDPEVKFNWYVDGVEVHNAKTKPCEEQYGSTYRCVSVLTVLHQDWLNGKEYKCKVSNKALPAPIEKTISKAKGQPREPQVYTLPPSREEMTKNQVSLTCLVKGFYPSDIAVEWESNGQPENNYKTTPPVLDSDGSFFLYSKLTVDKSRWQQGNVFSCSVMHEALHNHYTQKSLSLSPGK
> 10000
